target: HPK1 (Homo sapiens (Human), UniProt Q92918, S171E/T165E); experiment: HPK1-FL HTRF Enzymatic Assay (HTRF); assay type: biochemical; conditions: HPK full length T165E S171E 0.125 nM, ATP 1 mM, Biotin-SLP76 100 nM, read-out: HPK1 Ki (nM), H = HTRF
Sequence (Q92918 whole entry T165E/S171E): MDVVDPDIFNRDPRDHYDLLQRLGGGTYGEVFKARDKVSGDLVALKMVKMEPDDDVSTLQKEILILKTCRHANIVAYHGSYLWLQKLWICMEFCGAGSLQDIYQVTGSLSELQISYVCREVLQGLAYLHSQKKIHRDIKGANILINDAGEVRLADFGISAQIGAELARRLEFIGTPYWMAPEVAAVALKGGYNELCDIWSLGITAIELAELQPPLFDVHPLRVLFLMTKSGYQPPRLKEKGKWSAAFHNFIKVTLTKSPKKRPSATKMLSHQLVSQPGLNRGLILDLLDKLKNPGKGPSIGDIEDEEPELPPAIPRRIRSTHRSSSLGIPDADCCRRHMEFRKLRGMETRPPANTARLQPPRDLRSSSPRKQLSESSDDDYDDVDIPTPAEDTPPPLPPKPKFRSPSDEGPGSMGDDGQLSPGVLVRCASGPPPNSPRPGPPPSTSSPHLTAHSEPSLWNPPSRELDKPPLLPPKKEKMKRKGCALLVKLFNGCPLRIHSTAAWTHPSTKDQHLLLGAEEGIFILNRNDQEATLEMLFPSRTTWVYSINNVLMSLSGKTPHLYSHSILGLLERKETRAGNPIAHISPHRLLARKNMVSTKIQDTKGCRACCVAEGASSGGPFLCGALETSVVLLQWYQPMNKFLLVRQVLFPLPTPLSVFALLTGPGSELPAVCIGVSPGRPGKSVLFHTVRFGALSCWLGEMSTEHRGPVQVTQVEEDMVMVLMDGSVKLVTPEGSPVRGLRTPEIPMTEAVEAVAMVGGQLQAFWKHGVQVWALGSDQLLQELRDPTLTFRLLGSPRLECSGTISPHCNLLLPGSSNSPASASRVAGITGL
Each record is given t if its reported Ki is strictly below 0.02 nM. Records at or above 0.02 nM are given f.

Say whether its Ki is strictly beneath 0.02 nM. Entry: Cc1c(N)cncc1-c1cc2cc(Nc3cc4n(n3)C[S+]([O-])CC4)ncc2cc1F (racemic)
f

What about this molecule? COc1cc(C)c(-c2cc3cc(Nc4cc5n(n4)CC(=O)N(C)CC5)ncc3cc2F)cn1
f

What about this molecule? Cc1c(N)cncc1-c1cc2cc(Nc3cc4n(n3)CC(=O)N(C(C)(C)C)CC4F)ncc2cc1F (single isomer, unassigned) [Compound 167b]
t

Next:
Say whether its Ki is strictly beneath 0.02 nM. Entry: Cc1c(-c2cc3cc(Nc4cc5n(n4)CC(=O)NCC5)ncc3cc2F)cnc2c1NCCC2=O
f

What about this molecule? Cc1c(-c2cc3cc(Nc4cc5n(n4)CC(=O)N(C)CC54CC4)ncc3cc2F)cnc2c1NCC[C@@]2(C)O (single isomer, unassigned) [Compound 229b]
t
